System: Rattus norvegicus
Test Name: Antihypertensive activity in Norwegian albino rat model of DOCA-salt-induced hypertension assessed as inhibition of systolic blood pressure at 10 mg/kg, po after 4 hrs by non-invasive tail cuff method relative to control
Assay type: functional
Readout Name: inhibition in vivo at 10 mg/kg (%)
Entry rule: numbers only, all in %.

# input compound: `CC(=O)c1c(C)nc(Nc2nc3ccccc3s2)nc1C` ; wanted: its inhibition in vivo at 10 mg/kg 2.21

# input compound: COC(=O)C1=C(C)N=C2Sc3ccccc3N2C1c1ccc(O)c(OC)c1 (centres undefined) ; wanted: its inhibition in vivo at 10 mg/kg 19.8

# input compound: COC(=O)C1=C(C)N=C2Sc3ccccc3N2C1c1ccc(N(C)C)cc1 (centres undefined) ; wanted: its inhibition in vivo at 10 mg/kg 18.1

# input compound: `Cc1cc(C)nc(Nc2nc3ccccc3s2)n1` ; wanted: its inhibition in vivo at 10 mg/kg 1.33

###

Assayed Target: Myosin light chain kinase, smooth muscle (Homo sapiens, UniProt Q15746)
Sequence (Q15746 whole entry): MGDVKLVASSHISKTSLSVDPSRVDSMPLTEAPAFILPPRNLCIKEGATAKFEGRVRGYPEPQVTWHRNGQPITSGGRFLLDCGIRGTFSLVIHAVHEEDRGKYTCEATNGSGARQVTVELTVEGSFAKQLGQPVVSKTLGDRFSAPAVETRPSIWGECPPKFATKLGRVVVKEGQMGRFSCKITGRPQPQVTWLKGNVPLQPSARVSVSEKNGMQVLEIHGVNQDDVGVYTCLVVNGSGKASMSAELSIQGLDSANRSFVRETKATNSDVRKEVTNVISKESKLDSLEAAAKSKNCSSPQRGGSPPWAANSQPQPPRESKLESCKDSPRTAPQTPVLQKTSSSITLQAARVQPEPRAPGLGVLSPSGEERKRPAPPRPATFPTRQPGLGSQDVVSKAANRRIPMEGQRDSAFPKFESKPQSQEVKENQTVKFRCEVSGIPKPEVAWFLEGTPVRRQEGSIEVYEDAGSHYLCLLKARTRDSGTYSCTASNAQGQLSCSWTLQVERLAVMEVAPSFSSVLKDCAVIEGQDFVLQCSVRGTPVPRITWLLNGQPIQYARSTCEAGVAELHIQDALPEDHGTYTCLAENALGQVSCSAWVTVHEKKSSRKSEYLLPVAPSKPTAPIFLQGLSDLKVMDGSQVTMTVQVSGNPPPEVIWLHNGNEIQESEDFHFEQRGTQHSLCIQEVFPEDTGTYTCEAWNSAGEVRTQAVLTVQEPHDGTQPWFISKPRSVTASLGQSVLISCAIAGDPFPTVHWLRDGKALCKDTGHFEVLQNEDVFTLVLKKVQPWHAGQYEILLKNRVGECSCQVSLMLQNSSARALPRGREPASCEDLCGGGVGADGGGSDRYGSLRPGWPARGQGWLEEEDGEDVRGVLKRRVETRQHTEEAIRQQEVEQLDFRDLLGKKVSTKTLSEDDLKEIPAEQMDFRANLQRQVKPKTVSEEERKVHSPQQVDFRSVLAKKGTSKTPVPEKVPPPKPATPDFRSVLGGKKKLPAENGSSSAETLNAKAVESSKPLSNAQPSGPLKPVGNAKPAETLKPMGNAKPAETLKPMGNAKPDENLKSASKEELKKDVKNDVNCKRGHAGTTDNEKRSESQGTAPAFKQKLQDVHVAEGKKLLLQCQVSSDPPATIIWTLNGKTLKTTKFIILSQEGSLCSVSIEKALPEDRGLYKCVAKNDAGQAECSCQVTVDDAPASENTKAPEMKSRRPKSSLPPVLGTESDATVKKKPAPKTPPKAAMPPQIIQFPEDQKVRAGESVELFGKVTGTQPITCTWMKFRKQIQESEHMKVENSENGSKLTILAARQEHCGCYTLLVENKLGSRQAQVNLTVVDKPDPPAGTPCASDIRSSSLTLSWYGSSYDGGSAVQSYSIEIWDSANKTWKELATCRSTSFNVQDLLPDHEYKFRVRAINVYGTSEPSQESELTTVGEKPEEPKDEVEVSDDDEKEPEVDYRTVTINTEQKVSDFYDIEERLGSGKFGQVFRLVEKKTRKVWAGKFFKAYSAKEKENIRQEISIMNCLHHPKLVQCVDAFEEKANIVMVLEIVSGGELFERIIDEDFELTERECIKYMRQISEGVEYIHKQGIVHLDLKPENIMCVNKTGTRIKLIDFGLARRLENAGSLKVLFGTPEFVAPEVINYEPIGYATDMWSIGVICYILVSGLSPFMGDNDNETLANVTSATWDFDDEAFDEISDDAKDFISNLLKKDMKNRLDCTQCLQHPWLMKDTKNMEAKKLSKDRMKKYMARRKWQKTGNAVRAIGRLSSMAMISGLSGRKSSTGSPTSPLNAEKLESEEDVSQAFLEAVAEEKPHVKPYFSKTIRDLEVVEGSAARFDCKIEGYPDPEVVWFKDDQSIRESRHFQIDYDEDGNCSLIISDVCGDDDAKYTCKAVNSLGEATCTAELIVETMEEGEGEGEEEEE
Test Name: Inhibition of MLCK (unknown origin) incubated for 15 mins using [gamma-32P]-ATP by scintillation counting method
Study Conditions: read-out: pIC50 (converted)
Readout Name: IC50 (mM)
Entry rule: numbers only, all in mM.

Worked set:
>>> observed_value("CCOC(=O)C1=C(C)NC(OC)N(CC(=O)c2ccc(OC)cc2)C1c1ccc(Cl)cc1 (stereo not given)")
5.49
>>> observed_value("CCOC(=O)C1=C(C)N=C2Sc3ccccc3N2C1c1ccccc1Cl (stereo not given)")
9.26
>>> observed_value("COC(=O)C1=C(C)N=C2Sc3ccccc3N2C1c1ccccc1Cl (stereo not given)")
10.2
>>> observed_value("COC(=O)C1=C(C)N=C2Sc3ccccc3N2C1c1ccc(Cl)cc1 (stereo not given)")
11
>>> observed_value("COC(=O)C1=C(C)N=C2Sc3ccccc3N2C1c1ccc(OC)cc1 (stereo not given)")
46.7
>>> observed_value("CCOC(=O)C1=C(C)NC(OC)N(CC(=O)c2ccccc2)C1c1ccccc1 (stereo not given)")
4.29
>>> observed_value("CCOC(=O)C1=C(C)NC(OC)N(CC(=O)c2ccc(OC)cc2)C1c1ccc(O)cc1 (stereo not given)")
0.0102
>>> observed_value("CCOC(=O)C1=C(C)N=C2Sc3ccccc3N2C1c1cccc([N+](=O)[O-])c1 (stereo not given)")
47.6
>>> observed_value("CCOC(=O)C1=C(C)NC(OC)N(CC(=O)c2ccc(OC)cc2)C1c1ccc(OC)cc1 (stereo not given)")
0.0244

# input compound: CCOC(=O)C1=C(C)NC(OC)N(CC(=O)c2ccc(OC)cc2)C1c1ccccc1 (stereo not given) ; wanted: its IC50 0.00752

###

Test system: Rattus norvegicus
Test Name: Antihypertensive activity in Norwegian albino rat assessed as inhibition of systolic blood pressure at 10 mg/kg, po after 0.15 hrs by invasive carotid artery cannulation method relative to control
Type: functional
Attribute: inhibition in vivo at 10 mg/kg
Answer with the figure and its unit, nothing else.

>>> observed_value("COC(=O)C1=C(C)N=C2Sc3ccccc3N2C1c1ccc(O)c(OC)c1 (stereo not given)")
"4.42%"
>>> observed_value("CCOC(=O)C1=C(C)N=C2Sc3ccccc3N2C1c1cccc([N+](=O)[O-])c1 (stereo not given)")
"4%"

# input compound: COC(=O)C1=C(C)N=C2Sc3ccccc3N2C1c1ccc(OC)cc1 (stereo not given) ; wanted: its inhibition in vivo at 10 mg/kg 4.42%

# input compound: COC(=O)C1=C(C)N=C2Sc3ccccc3N2C1c1ccc([N+](=O)[O-])cc1 (stereo not given) ; wanted: its inhibition in vivo at 10 mg/kg 2.21%

# input compound: COC(=O)C1=C(C)N=C2Sc3ccccc3N2C1c1ccc(Cl)cc1 (stereo not given) ; wanted: its inhibition in vivo at 10 mg/kg 2.21%

###

System: Rattus norvegicus
Test Name: Antihypertensive activity in Norwegian albino rat assessed as inhibition of systolic blood pressure at 10 mg/kg, po after 1 hr by invasive carotid artery cannulation method relative to control
Format: functional
Attribute: inhibition in vivo at 10 mg/kg
Entry rule: numbers only, all in %.

Worked set:
>>> observed_value("COC(=O)C1=C(C)N=C2Sc3ccccc3N2C1c1ccc(OC)cc1 (stereo not given)")
15.9
>>> observed_value("CCOC(=O)C1=C(C)N=C2Sc3ccccc3N2C1c1cccc([N+](=O)[O-])c1 (stereo not given)")
21.8
>>> observed_value("COC(=O)C1=C(C)N=C2Sc3ccccc3N2C1c1ccc(O)c(OC)c1 (stereo not given)")
15.9
>>> observed_value("COC(=O)C1=C(C)N=C2Sc3ccccc3N2C1c1ccc(Cl)cc1 (stereo not given)")
15.9

# input compound: COC(=O)C1=C(C)N=C2Sc3ccccc3N2C1c1ccc([N+](=O)[O-])cc1 (stereo not given) ; wanted: its inhibition in vivo at 10 mg/kg 15.9

###

Test Name: Cmax in Sprague-Dawley rat at 10 mg/kg, iv by HPLC method
Assay type: ADME, organism-based
Parameters: dose 10 mg/kg, route intravenous
Study Conditions: in vivo
Readout Name: Cmax

# input molecule: CCOC(=O)C1=C(C)N=C2Sc3ccccc3N2C1c1cccc([N+](=O)[O-])c1 (stereo unspecified) ; wanted: its Cmax 1630 ng/mL

###

Test Name: Elimination half life in Sprague-Dawley rat at 10 mg/kg, iv by HPLC method
Type: ADME, organism-based
Study Conditions: in vivo, read-out: beta t1/2 (converted)
Readout Name: half-life

# input molecule: CCOC(=O)C1=C(C)N=C2Sc3ccccc3N2C1c1cccc([N+](=O)[O-])c1 (stereo unspecified) ; wanted: its half-life 2.5 h

###

Attribute: pIC50
Assayed Target: Myosin light chain kinase, smooth muscle (Homo sapiens)
Test Name: Inhibition of MLCK (unknown origin) incubated for 15 mins using [gamma-32P]-ATP by scintillation counting method
Study Conditions: read-out: IC50
Please treat pIC50 as minus the base-10 logarithm of the molar concentration.

Worked set:
>>> observed_value("CCOC(=O)C1=C(C)NC(OC)N(CC(=O)c2ccccc2)C1c1ccccc1 (centres undefined)")
4.63
>>> observed_value("COC(=O)C1=C(C)NC(C)=C(C(=O)OC)C1c1ccccc1[N+](=O)[O-]")
5.69
>>> observed_value("CCOC(=O)C1=C(C)NC(OC)N(CC(=O)c2ccc(Cl)cc2)C1c1ccc(OC)cc1 (centres undefined)")
4.52

# input compound: CCOC(=O)C1=C(C)NC(OC)N(CC(=O)c2ccc(Cl)cc2)C1c1ccccc1 (centres undefined) ; wanted: its pIC50 4.48

# input compound: CCOC(=O)C1=C(C)NC(OC)N(CC(=O)c2ccccc2)C1c1ccc(C)cc1 (centres undefined) ; wanted: its pIC50 4.72

# input compound: CCOC(=O)C1=C(C)NC(OC)N(CC(=O)c2ccc(OC)cc2)C1c1ccccc1 (centres undefined) ; wanted: its pIC50 4.88

# input compound: CCOC(=O)C1=C(C)N=C2Sc3ccccc3N2C1c1ccccc1Cl (centres undefined) ; wanted: its pIC50 4.97

###

Test Name: Oral bioavailability in Sprague-Dawley rat at 20 mg/kg by HPLC method
Type: ADME, organism-based
Study Conditions: in vivo
Readout Name: bioavailability
Answer with the figure and its unit, nothing else.

# input compound: CCOC(=O)C1=C(C)N=C2Sc3ccccc3N2C1c1cccc([N+](=O)[O-])c1 (stereo unspecified) ; wanted: its bioavailability 56.8%

###

Test Name: Cmax in Sprague-Dawley rat at 20 mg/kg, po by HPLC method
Assay type: ADME, organism-based
Design: dose 20 mg/kg, route oral
Study Conditions: in vivo
Readout Name: Cmax (ng/mL)
Entry rule: numbers only, all in ng/mL.

# input compound: CCOC(=O)C1=C(C)N=C2Sc3ccccc3N2C1c1cccc([N+](=O)[O-])c1 (stereo unspecified) ; wanted: its Cmax 400

###

Test Name: AUC (0 to infinity) in Sprague-Dawley rat at 10 mg/kg, iv by HPLC method
Format: ADME, organism-based
Parameters: dose 10 mg/kg, route intravenous, time infinity
Study Conditions: in vivo
Readout Name: AUC(0-inf) (ng·h/mL)
Entry rule: numbers only, all in ng·h/mL.

# input compound: CCOC(=O)C1=C(C)N=C2Sc3ccccc3N2C1c1cccc([N+](=O)[O-])c1 (stereo unspecified) ; wanted: its AUC(0-inf) 1480

###

Attribute: IC50
Assayed Target: Myosin light chain kinase, smooth muscle (Homo sapiens, UniProt Q15746)
Test Name: Inhibition of MLCK (unknown origin) incubated for 15 mins using [gamma-32P]-ATP by scintillation counting method
Study Conditions: read-out: pIC50 (converted)
Entry rule: numbers only, all in mM.

>>> observed_value("CCOC(=O)C1=C(C)NC(OC)N(CC(=O)c2ccc(Cl)cc2)C1c1ccccc1 (configuration not stated)")
3
>>> observed_value("CCOC(=O)C1=C(C)NC(OC)N(CC(=O)c2ccccc2)C1c1ccc(OC)cc1 (configuration not stated)")
0.0135
>>> observed_value("CCOC(=O)C1=C(C)NC(OC)N(CC(=O)c2ccccc2)C1c1ccc(Cl)cc1 (configuration not stated)")
3.19

# input compound: CCOC(=O)C1=C(C)NC(OC)N(CC(=O)c2ccccc2)C1c1ccc(C)cc1 (configuration not stated) ; wanted: its IC50 5.21

# input compound: CCOC(=O)C1=C(C)NC(OC)N(CC(=O)c2ccc(Cl)cc2)C1c1ccc(O)cc1 (configuration not stated) ; wanted: its IC50 6.58

# input compound: COC(=O)C1=C(C)N=C2Sc3ccccc3N2C1c1ccccc1O (configuration not stated) ; wanted: its IC50 23.3

# input compound: COC(=O)C1=C(C)N=C2Sc3ccccc3N2C1c1ccc([N+](=O)[O-])cc1 (configuration not stated) ; wanted: its IC50 49

Reference source for all entries: ChEMBL document CHEMBL3616444
